Below, each entry is listed alongside its reported melting point.
reported_metric: melting point

Cc1cc(C(O)C2CCCCC2)c2cccc(C)c2n1 (centres unmarked)    155 to 157 °C
OC(Cc1cc(C(F)(F)F)nc2c(C(F)(F)F)cccc12)c1cc2ccccc2o1 (centres unmarked)    123 to 124 °C
OC1(c2cc(C(F)(F)F)nc3c(C(F)(F)F)cccc23)C=CCC1 (centres unmarked)    73 to 74 °C
OCCCCC(O)c1cc(C(F)(F)F)nc2c(C(F)(F)F)cccc12 (centres unmarked)    120.6 to 120.9 °C
Oc1cc(C(O)C2CCCCC2)c2ccccc2n1 (centres unmarked)    > 250 °C
